Recorded values, source ChEMBL document CHEMBL1201862.

System: OVCAR-4
Assay: NCI tumour cell line growth inhibition, 48 h
The source made the active and inactive calls. No stated cut-off is given here; in the data, active = GI50 up to about 1.1 µM and inactive = higher.
Reported metric: GI50

The reported GI50 of the compound c1cc(CSP234N5CCN2CCN3CCN4CC5)ccc1CSP123N4CCN1CCN2CCN3CC4 was > 100 µM (inactive)

Looking up CCOC(=O)/C(C(=O)NC(C)C)=C(/N)N1CCOCC1 , I see its GI50 listed as > 100 µM (inactive)

GI50 measured on CC(C)(C)C1CCC2c3c([nH]c4ccccc34)C3C(=O)N(c4cc(Br)cc(Br)c4)C(=O)C3C2C1 (stereo not drawn) = 10.1 µM (inactive)

* * *

Can you tell me GI50 for the items I'm about to list?
Test system: A498
Assay: NCI tumour cell line growth inhibition, 48 h
Active and inactive are the calls of the source. No stated cut-off is given here; in the data, active = GI50 up to about 1.1 µM and inactive = higher.

molecule O=c1c2cc(S(=O)(=O)O)ccc2nc(COc2ccc(Oc3ccc(Cl)cc3Cl)cc2)n1-c1ccc(Cl)cc1Oc1c(Cl)cccc1Cl , GI50 observed: 25.3 µM (inactive)

GI50 recorded for this molecule, CCOC(=O)c1ccc2c(=O)n3c(C(=O)OCC)ccc3c(=O)n12 , is > 100 µM (inactive)

Recorded GI50 (molecule O=C1C=C(O)C(=O)c2c(O)ccc(O)c21 ): > 100 µM (inactive)

According to the records, this molecule COC(=O)C1(C)NCCc2c1[nH]c1ccccc21 (configuration not stated) displays GI50 of > 100 µM (inactive)

// CC1=C(C(=O)Nc2ccccc2C)C(c2ccc(C3C(C(=O)Nc4ccccc4C)=C(C)NC(C)=C3C(=O)Nc3ccccc3C)cc2)C(C(=O)Nc2ccccc2C)=C(C)N1 : GI50 value = 15.5 µM (inactive)

get_value(item= C=C1C(=O)OC2/C=C(\C)C(O)CC(O)C(C)(O)CC(OC(=O)/C(C)=C/C)C12 (configuration not stated) , readout=GI50) returns 42.2 µM (inactive)

Summary for this molecule, COC(=O)C(Cc1c[nH]c2ccccc12)NP(=O)(O)OCC1OC(n2cc(Br)c(=O)[nH]c2=O)CC1O (configuration not stated) : GI50 is > 100 µM (inactive)

Recorded GI50 (molecule COC(=O)C1=C(O)c2cc(OC)c(OC)c(OC)c2[C@H](c2cc(OC)c(OC)c(OC)c2)C1C(=O)OC (some centres not stated) ): 30.1 µM (inactive)

For record COc1ccc2oc(-c3ccncc3)cc(=O)c2c1 the listed GI50 is > 100 µM (inactive)

Lab book: GI50 of OC(Cc1ccc2ccccc2n1)(C(F)(F)Cl)C(F)(F)Cl noted as > 10 µM (inactive)

For record CSc1[nH]cnc1C(N)=S the listed GI50 is > 100 µM (inactive)

What the record says about COc1ccc(NC(S)=Nc2cccc(C)n2)cc1 : GI50 is > 100 µM (inactive)

// GI50 value for N#Cc1c(-c2ccc(Cl)cc2)c2c([nH]c1=O)-c1ccccc1SC2 : > 100 µM (inactive)

# molecule COc1ccc2nc3ccc(OC)cc3c(SCc3ccccc3)c2c1 ; its GI50 = > 100 µM (inactive)

Consider COc1ccc(OC(C)C(=O)O)c2c(=O)ccccc12 (configuration not stated) . Its measured GI50 is > 100 µM (inactive)

Summary for this molecule, CCC(c1c[nH]c2ccc(Br)cc12)c1c[nH]c2ccc(Br)cc12 : GI50 is 3.79 µM (inactive)

Summary for this molecule, CO/C(=N\N=C(/C)C(F)(F)F)c1ccncc1 : GI50 is 15.5 µM (inactive)

// GI50 value for O=C(O)c1ccccc1CC(Cc1ccc2c(c1)CCC2)C(=O)O (configuration not stated) : > 100 µM (inactive)

Lab note: C[S+]=c1sc2ccccc2s1 gave GI50 of > 100 µM (inactive)

// recorded GI50 for CN(C)Cc1cc(C(C)(C)C)cc(CNC2CCCCC2)c1O : 27.9 µM (inactive)

GI50 for Cc1ccc(C(C)(C)C[P+](C)(c2ccccc2)c2ccccc2)cc1 is 34.4 µM (inactive)

Looking up CCCCOCc1cc(CN2CCN(C)CC2)c(O)c2ncccc12 , I see its GI50 listed as 24.8 µM (inactive)
